Consider the following molecules; for each one, report its fraction unbound.
assay_overview: Protein binding in human serum assessed as free fraction
Format: ADME, cell-free

Which fraction unbound is reported for this molecule? [2H]C([2H])([2H])c1nnn(C)c1-c1cnc2c3ccc(C(C)(C)O)c(F)c3n([C@H](c3ncccc3F)C3CCOCC3)c2c1 0.06

What about this molecule? [2H]C([2H])([2H])c1nnn(C)c1-c1cnc2c3ccc(C(C)(C)O)cc3n([C@H](c3ncccc3F)C3CCOCC3)c2c1 0.04

What about this molecule? [2H]C([2H])([2H])c1nnn(C)c1-c1cnc2c3ccc(C(C)(C)O)cc3n([C@H](c3cc(C)on3)C3CCOCC3)c2c1 0.14

What about this molecule? [2H]C([2H])([2H])c1nnn(C)c1-c1cnc2c3ccc(C(C)(C)O)c(F)c3n([C@H](c3cc(C)on3)C3CCOCC3)c2c1 0.16

What about this molecule? [2H]C([2H])([2H])c1nnn(C)c1-c1cnc2c3cc(F)c(C(C)(C)O)cc3n([C@H](c3ccccc3)C3CCOCC3)c2c1 0.01

What about this molecule? [2H]C([2H])([2H])c1nnn(C)c1-c1cnc2c3ccc(C(C)(C)O)cc3n([C@H](c3ccc(Cl)cn3)C3CCOCC3)c2c1 0.06
